- tgt: T1, Dimeric monkey CD48-mFc (monkey)
- T1 construct: Soluble monkey CD48 with a C-terminal Fc fusion [mFc]; the whole entry is the construct
- T1 chain: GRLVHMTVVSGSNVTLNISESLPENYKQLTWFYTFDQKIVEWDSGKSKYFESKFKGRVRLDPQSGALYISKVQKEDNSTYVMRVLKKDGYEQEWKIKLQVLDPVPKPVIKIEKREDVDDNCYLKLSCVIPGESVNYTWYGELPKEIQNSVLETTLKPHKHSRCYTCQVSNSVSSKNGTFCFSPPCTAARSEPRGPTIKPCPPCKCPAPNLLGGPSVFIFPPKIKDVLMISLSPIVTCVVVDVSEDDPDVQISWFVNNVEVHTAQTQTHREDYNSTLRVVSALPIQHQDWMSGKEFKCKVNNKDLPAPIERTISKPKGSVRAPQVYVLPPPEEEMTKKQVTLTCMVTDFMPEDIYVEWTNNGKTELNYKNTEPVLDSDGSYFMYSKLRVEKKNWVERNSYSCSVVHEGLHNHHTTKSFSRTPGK
- method.summary: SPR (Biacore), antibody captured by anti-Fc, CD48 in solution, 37 C
binders and their reported kon
The answer is to be given in M⁻¹ s⁻¹; state only the numeric part.

[
  {
    "binder": "H4H1707N (antibody, V domains shown, Human IgG4 Fc (H4H)) VH: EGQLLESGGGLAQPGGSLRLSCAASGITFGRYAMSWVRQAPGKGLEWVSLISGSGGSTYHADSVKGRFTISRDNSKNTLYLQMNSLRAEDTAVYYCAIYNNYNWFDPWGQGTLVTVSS VL: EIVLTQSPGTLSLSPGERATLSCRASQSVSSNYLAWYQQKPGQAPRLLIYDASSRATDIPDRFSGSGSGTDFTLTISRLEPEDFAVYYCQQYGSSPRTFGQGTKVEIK",
    "unit.of.measure": "M⁻¹ s⁻¹",
    "measured.result": "1.64e+06"
  },
  {
    "binder": "H4H1771P (antibody, human IgG4, V domains shown, Human IgG4 Fc (H4H)) VH: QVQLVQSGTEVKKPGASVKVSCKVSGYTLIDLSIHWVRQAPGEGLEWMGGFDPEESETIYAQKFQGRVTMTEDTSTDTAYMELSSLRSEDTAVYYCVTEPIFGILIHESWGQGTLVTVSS VL: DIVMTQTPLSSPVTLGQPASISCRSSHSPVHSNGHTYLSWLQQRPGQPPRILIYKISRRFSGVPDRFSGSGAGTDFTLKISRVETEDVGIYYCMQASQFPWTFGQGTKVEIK",
    "unit.of.measure": "M⁻¹ s⁻¹",
    "measured.result": "1.64e+06"
  }
]

Proceed to the following item.
Quick check: kon of H4H1763N (antibody, V domains shown, Human IgG4 Fc (H4H)) VH: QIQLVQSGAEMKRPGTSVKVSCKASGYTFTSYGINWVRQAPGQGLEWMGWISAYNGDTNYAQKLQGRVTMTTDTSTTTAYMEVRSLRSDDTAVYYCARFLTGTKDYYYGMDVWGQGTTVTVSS VL: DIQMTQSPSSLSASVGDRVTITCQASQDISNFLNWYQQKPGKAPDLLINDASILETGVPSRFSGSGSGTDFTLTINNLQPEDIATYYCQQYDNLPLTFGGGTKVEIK ? 2.42e+06
